# Test system: HT29 colon
# Measurement notes: NCI tumour cell line growth inhibition, 48 h
Observed property: TGI

Form field TGI, entry C(=C\C(SCc1ccccc1)SCc1ccccc1)/c1ccccc1 : > 10 µM

Form field TGI, entry COc1cc[n+](C)cc1 : > 100 µM

Form field TGI, entry O=NNc1nc(-c2cccnc2)nc2ccccc12 : > 100 µM

----------
# Tested on: HT29 colon
# Measurement notes: NCI tumour cell line growth inhibition, 48 h
Observed property: TGI

Form field TGI, entry Cc1cccc2c1NC(=S)[C@@H]1CCCN1C2=O : > 100 µM

Form field TGI, entry CNC(=O)c1[nH]cnc1/N=N/N(C)N : > 100 µM

Form field TGI, entry CC(C)C1OC(=O)/C=C/C=C/C=C/C=C/C=C/CC(O)CC(O)CC(O)CC(O)CC(O)CC(O)CC(O)CC(O)/C=C/C1C (stereo not drawn) : > 100 µM

Form field TGI, entry CC(C)C[P+](c1ccccc1)(c1ccccc1)c1ccccc1 : > 100 µM

Form field TGI, entry COc1ccc(-c2cn(-c3ccccc3)c(-c3ccccc3)n2)cc1OC : > 100 µM

Form field TGI, entry Cc1nc2ccccc2c(=O)[nH]1 : > 100 µM

Form field TGI, entry Cc1ccc2c(n1)C(=O)c1ccccc1C2=O : > 87.9 µM

Form field TGI, entry COc1ccc(C2S/C(=C\c3ccc(O)cc3)C(=O)N2NC(=O)Cc2ccccc2)cc1 (stereo not drawn) : > 100 µM

Form field TGI, entry COc1cc(/C=C/C(=O)c2sc(Nc3ccccc3)nc2C)ccc1O : > 100 µM

Form field TGI, entry CCCCCCCCCCCCCCCCCCCCCC(=O)Nc1ccn(C2OC(CO)C(O)C2O)c(=O)n1 (stereo not drawn) : > 100 µM

Form field TGI, entry COc1cccc(-c2cc(=O)c3c(C)ccnc3[nH]2)c1 : > 100 µM

Form field TGI, entry O=C(CC(C(=O)c1ccoc1)c1ccco1)c1ccco1 (stereo not drawn) : > 100 µM

Form field TGI, entry COc1cc2c(cc1OC)CC(N=[N+]=[N-])c1cc(OC)c(OC)cc1/C=C\2 (stereo not drawn) : > 100 µM

Form field TGI, entry CC(CNC(Cc1ccccc1)c1ccccc1)NC(Cc1ccccc1)c1ccccc1 (stereo not drawn) : 4.04 µM

Form field TGI, entry CC(C)CC1=[N+]=C(NC#N)N=C(CCC(=O)Nc2ccccc2[N+](=O)[O-])C1 : > 100 µM

Form field TGI, entry COc1cccc(NC(=O)CC(=O)N2N=C(C)C(N=Nc3ccc(S(=O)(=O)c4ccc(N=NC5C(=O)N(C(=O)CC(=O)Nc6cccc(OC)c6)N=C5C)cc4)cc3)C2=O)c1 (stereo not drawn) : > 100 µM

Form field TGI, entry Cn1c2ccccc2c(=NNc2ccc(C(=O)O)cc2)c2ccccc21 : 32.3 µM

Form field TGI, entry Cc1ccc(N=C2C(=O)C3=C(OC(C)(C)CC3)c3ccccc32)cc1 : 1.15 µM

----------
Answer each item with its documented TGI.
# Test system: RXF 393 renal
# Measurement notes: NCI tumour cell line growth inhibition, 48 h

Summary: CN=S(=O)(c1ccccc1)c1ccccc1 , RXF 393 renal, TGI = > 100 µM

Summary: CC(=O)O[C@@H]1CC2C(C)(C)CCCC2(C)C2=C1C(=O)C(C(C)C)=CC2=O (some centres undefined) , RXF 393 renal, TGI = 2.27 µM

Summary: CC12CCC(=O)C=C1CCC1C2C(O)CC2(C)C(c3csc(N)n3)CCC12 (centres undefined) , RXF 393 renal, TGI = > 100 µM

Summary: COC(=O)c1cc(C#Cc2cc(OC)ccc2OC)ccc1OC , RXF 393 renal, TGI = 84.1 µM

Summary: COc1ccc(NC(=O)/C(CC2=Nc3ccc([N+](=O)[O-])cc3NC2O)=N\NC(=O)C[N+](C)(C)C)c(OC)c1 (centres undefined) , RXF 393 renal, TGI = > 100 µM

Summary: CCCCn1cnc2c(SC)ncnc21 , RXF 393 renal, TGI = > 100 µM

Summary: C[C@H]1[C@H](C)CC[C@]2(C(=O)O)CC[C@]3(C)C(=CC[C@@H]4[C@@]5(C)C/C(=C/c6cccnc6)[C@H](O)C(C)(C)[C@@H]5CC[C@]43C)[C@H]12 , RXF 393 renal, TGI = 36.6 µM

Summary: N#C/C(=C\c1cccc(O)c1)C(N)=O , RXF 393 renal, TGI = > 100 µM

Summary: O=[N+]([O-])c1cccnc1NCC1(CO)CC(Cc2ccccc2)C1 (centres undefined) , RXF 393 renal, TGI = > 100 µM

Summary: COC(=O)/N=[N+](\[O-])C(c1ccc(OC)cc1)C1CCCCC1 (centres undefined) , RXF 393 renal, TGI = 28.3 µM

Summary: CC1=C(O)C(=O)C2C(=O)C1C(C)C2c1ccc(Cl)cc1 (centres undefined) , RXF 393 renal, TGI = > 100 µM

Summary: COC(=O)c1c(C)cccc1CC1Cc2c(C)cccc2C1=O (centres undefined) , RXF 393 renal, TGI = > 100 µM

Summary: COc1ccc(N=C(Nc2ccc(OC)cc2)C(=Nc2ccc(OC)cc2)Nc2ccc(OC)cc2)cc1 , RXF 393 renal, TGI = > 100 µM

Summary: Cn1ccnc1C(=O)/C=C/c1ccc(CC(=O)Nc2ccccc2)cc1 , RXF 393 renal, TGI = 7.99 µM

Summary: CCCCCCCCCCCCCCCC(=O)OCC1OC(n2c(O)c(N=NC(N)=S)c3ccc([N+](=O)[O-])cc32)C(OC(C)=O)C1OC(C)=O (centres undefined) , RXF 393 renal, TGI = > 100 µM

Summary: N#CC(C(=O)C(=O)NCCCNC(=O)C(=O)C(C#N)c1ccccc1)c1ccccc1 (centres undefined) , RXF 393 renal, TGI = > 100 µM

Summary: S=c1[nH]c(=S)c2cc(Sc3ccc4[nH]c(=S)[nH]c(=S)c4c3)ccc2[nH]1 , RXF 393 renal, TGI = 53.3 µM

Summary: Cc1ccc(C(O)c2cnc(C)n2Cc2ccccc2)cc1 (centres undefined) , RXF 393 renal, TGI = > 100 µM

Summary: Cc1cc(=O)oc2cc3c(cc12)Oc1ccccc1O3 , RXF 393 renal, TGI = > 100 µM

The values you see were collected from PubChem BioAssay (NCI).
